PBM binding z-score for assorted sequences
# Test system: LXRa:RXRa (NR concentration 270 nM, RXRa partner concentration 90 nM)
# method: PBM binding z-score (relative to random genomic background probes); higher = stronger binding; sequences stand for … in GC…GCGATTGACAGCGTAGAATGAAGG
Lab note: jot the number down without any unit.

Consider the reported PBM binding z-score for these sequences:
{"columns": ["residues", "recorded.value"],
 "data": [
  ["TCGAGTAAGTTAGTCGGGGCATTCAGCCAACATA", -0.541],
  ["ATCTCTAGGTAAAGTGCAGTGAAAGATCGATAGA", 0.336],
  ["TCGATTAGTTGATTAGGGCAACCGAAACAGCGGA", -0.186]
]}

Please fill in: PBM binding z-score reported for "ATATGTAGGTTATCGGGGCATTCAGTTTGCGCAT" = 1.49

Please fill in: PBM binding z-score reported for "CAAACTAGGTCACAGAGCTCAAAGTCCGTGCGTA" = 3.18

Please fill in: PBM binding z-score reported for "CGTCCAAGGTCAGAGAGGTGAGTGAATGCCGAGT" = 3.29
